The origin of these recorded values is paper PMC8235783.

method: in vivo
experimentalConditions: female, BALB/c, mouse, iv, 20 pmol peptide, total radioactivity, uptake in pancreas

compound	tissue uptake at 20 min / %ID/g
CCCC[C@@H](C(=O)N[C@@H](CC(=O)O)C(=O)N[C@@H](Cc1cccc2ccccc12)C(N)=O)N(C)C(=O)[C@H](Cc1c[nH]c2ccccc12)NC(=O)CNC(=O)[C@H](Cc1ccc(O)cc1)NC(=O)[C@H](C)NC(=O)[C@@H](CCC(=O)O)NC(=O)CN1CCN(CC(=O)O)CCN(CC(=O)O)CCN(CC(=O)O)CC1 [^68Ga-DOTA-MGS5, metal not drawn]	2.17

###

method: in vivo
experimentalConditions: female, BALB/c, mouse, iv, 20 pmol peptide, total radioactivity, uptake in blood
Experimental: The biodistribution profile of ^68Ga-DOTA-MGS5 in female BALB/c mice was evaluated for the time points of 5, 20, 60, and 90 min post injection (p.i.). Biodistribution studies evaluating the pharmacokinetics and tissue distribution of ^68Ga-DOTA-MGS5 were performed in 6-week-old female BALB/c mice (n = 12). […] Results were expressed as percentage of injected activity per organ (% IA) and per gram tissue (% IA/g).

compound	unitAbbrev	tissue uptake at 20 min
CCCC[C@@H](C(=O)N[C@@H](CC(=O)O)C(=O)N[C@@H](Cc1cccc2ccccc12)C(N)=O)N(C)C(=O)[C@H](Cc1c[nH]c2ccccc12)NC(=O)CNC(=O)[C@H](Cc1ccc(O)cc1)NC(=O)[C@H](C)NC(=O)[C@@H](CCC(=O)O)NC(=O)CN1CCN(CC(=O)O)CCN(CC(=O)O)CCN(CC(=O)O)CC1 [^68Ga-DOTA-MGS5, metal not drawn]	%ID/g	6.76

###

method: in vivo
experimentalConditions: female, BALB/c, mouse, iv, 20 pmol peptide, total radioactivity, uptake in lung
quantityMeasured: tissue uptake at 1.5 h (%ID/g)

compound	quantityMeasured	dataValue
CCCC[C@@H](C(=O)N[C@@H](CC(=O)O)C(=O)N[C@@H](Cc1cccc2ccccc12)C(N)=O)N(C)C(=O)[C@H](Cc1c[nH]c2ccccc12)NC(=O)CNC(=O)[C@H](Cc1ccc(O)cc1)NC(=O)[C@H](C)NC(=O)[C@@H](CCC(=O)O)NC(=O)CN1CCN(CC(=O)O)CCN(CC(=O)O)CCN(CC(=O)O)CC1 [^68Ga-DOTA-MGS5, metal not drawn]	tissue uptake at 1.5 h	0.59

###

method: in vivo
experimentalConditions: female, BALB/c, mouse, iv, 20 pmol peptide, total radioactivity, uptake in heart
Experimental: The biodistribution profile of ^68Ga-DOTA-MGS5 in female BALB/c mice was evaluated for the time points of 5, 20, 60, and 90 min post injection (p.i.). Biodistribution studies evaluating the pharmacokinetics and tissue distribution of ^68Ga-DOTA-MGS5 were performed in 6-week-old female BALB/c mice (n = 12). […] Results were expressed as percentage of injected activity per organ (% IA) and per gram tissue (% IA/g).

molecule	tissue uptake at 1.5 h
CCCC[C@@H](C(=O)N[C@@H](CC(=O)O)C(=O)N[C@@H](Cc1cccc2ccccc12)C(N)=O)N(C)C(=O)[C@H](Cc1c[nH]c2ccccc12)NC(=O)CNC(=O)[C@H](Cc1ccc(O)cc1)NC(=O)[C@H](C)NC(=O)[C@@H](CCC(=O)O)NC(=O)CN1CCN(CC(=O)O)CCN(CC(=O)O)CCN(CC(=O)O)CC1 [^68Ga-DOTA-MGS5, metal not drawn]	0.35 %ID/g

###

method: in vivo
experimentalConditions: female, BALB/c, mouse, iv, 20 pmol peptide, total radioactivity, uptake in intestine
quantityMeasured: tissue uptake at 1 h (%ID/g)

compound	dataValue
CCCC[C@@H](C(=O)N[C@@H](CC(=O)O)C(=O)N[C@@H](Cc1cccc2ccccc12)C(N)=O)N(C)C(=O)[C@H](Cc1c[nH]c2ccccc12)NC(=O)CNC(=O)[C@H](Cc1ccc(O)cc1)NC(=O)[C@H](C)NC(=O)[C@@H](CCC(=O)O)NC(=O)CN1CCN(CC(=O)O)CCN(CC(=O)O)CCN(CC(=O)O)CC1 [^68Ga-DOTA-MGS5, metal not drawn]	0.75

###

method: in vivo
experimentalConditions: female, BALB/c, mouse, iv, 20 pmol peptide, total radioactivity, uptake in spleen

molecule	unitAbbrev	tissue uptake at 20 min
CCCC[C@@H](C(=O)N[C@@H](CC(=O)O)C(=O)N[C@@H](Cc1cccc2ccccc12)C(N)=O)N(C)C(=O)[C@H](Cc1c[nH]c2ccccc12)NC(=O)CNC(=O)[C@H](Cc1ccc(O)cc1)NC(=O)[C@H](C)NC(=O)[C@@H](CCC(=O)O)NC(=O)CN1CCN(CC(=O)O)CCN(CC(=O)O)CCN(CC(=O)O)CC1 [^68Ga-DOTA-MGS5, metal not drawn]	%ID/g	1.7

###

method: in vivo
experimentalConditions: female, BALB/c, mouse, iv, 20 pmol peptide, total radioactivity, uptake in kidneys
Description: The biodistribution profile of ^68Ga-DOTA-MGS5 in female BALB/c mice was evaluated for the time points of 5, 20, 60, and 90 min post injection (p.i.). Biodistribution studies evaluating the pharmacokinetics and tissue distribution of ^68Ga-DOTA-MGS5 were performed in 6-week-old female BALB/c mice (n = 12). […] Results were expressed as percentage of injected activity per organ (% IA) and per gram tissue (% IA/g).

molecule	tissue uptake at 1.5 h, %ID/g
CCCC[C@@H](C(=O)N[C@@H](CC(=O)O)C(=O)N[C@@H](Cc1cccc2ccccc12)C(N)=O)N(C)C(=O)[C@H](Cc1c[nH]c2ccccc12)NC(=O)CNC(=O)[C@H](Cc1ccc(O)cc1)NC(=O)[C@H](C)NC(=O)[C@@H](CCC(=O)O)NC(=O)CN1CCN(CC(=O)O)CCN(CC(=O)O)CCN(CC(=O)O)CC1 [^68Ga-DOTA-MGS5, metal not drawn]	4.6

###

method: in vivo
experimentalConditions: female, BALB/c, mouse, iv, 20 pmol peptide, total radioactivity, uptake in spleen

compound	tissue uptake at 1 h
CCCC[C@@H](C(=O)N[C@@H](CC(=O)O)C(=O)N[C@@H](Cc1cccc2ccccc12)C(N)=O)N(C)C(=O)[C@H](Cc1c[nH]c2ccccc12)NC(=O)CNC(=O)[C@H](Cc1ccc(O)cc1)NC(=O)[C@H](C)NC(=O)[C@@H](CCC(=O)O)NC(=O)CN1CCN(CC(=O)O)CCN(CC(=O)O)CCN(CC(=O)O)CC1 [^68Ga-DOTA-MGS5, metal not drawn]	0.71 %ID/g

###

method: in vivo
experimentalConditions: female, BALB/c, mouse, iv, 20 pmol peptide, total radioactivity, uptake in kidneys

molecule	unitAbbrev	tissue uptake at 5 min
CCCC[C@@H](C(=O)N[C@@H](CC(=O)O)C(=O)N[C@@H](Cc1cccc2ccccc12)C(N)=O)N(C)C(=O)[C@H](Cc1c[nH]c2ccccc12)NC(=O)CNC(=O)[C@H](Cc1ccc(O)cc1)NC(=O)[C@H](C)NC(=O)[C@@H](CCC(=O)O)NC(=O)CN1CCN(CC(=O)O)CCN(CC(=O)O)CCN(CC(=O)O)CC1 [^68Ga-DOTA-MGS5, metal not drawn]	%ID/g	17.6

###

method: in vivo
experimentalConditions: female, BALB/c, mouse, iv, 20 pmol peptide, total radioactivity, uptake in femur
quantityMeasured: tissue uptake at 1 h (%ID/g)

compound	dataValue
CCCC[C@@H](C(=O)N[C@@H](CC(=O)O)C(=O)N[C@@H](Cc1cccc2ccccc12)C(N)=O)N(C)C(=O)[C@H](Cc1c[nH]c2ccccc12)NC(=O)CNC(=O)[C@H](Cc1ccc(O)cc1)NC(=O)[C@H](C)NC(=O)[C@@H](CCC(=O)O)NC(=O)CN1CCN(CC(=O)O)CCN(CC(=O)O)CCN(CC(=O)O)CC1 [^68Ga-DOTA-MGS5, metal not drawn]	0.62

###

method: in vivo
experimentalConditions: female, BALB/c, mouse, iv, 20 pmol peptide, total radioactivity, uptake in intestine

molecule	tissue uptake at 5 min [%ID/g]
CCCC[C@@H](C(=O)N[C@@H](CC(=O)O)C(=O)N[C@@H](Cc1cccc2ccccc12)C(N)=O)N(C)C(=O)[C@H](Cc1c[nH]c2ccccc12)NC(=O)CNC(=O)[C@H](Cc1ccc(O)cc1)NC(=O)[C@H](C)NC(=O)[C@@H](CCC(=O)O)NC(=O)CN1CCN(CC(=O)O)CCN(CC(=O)O)CCN(CC(=O)O)CC1 [^68Ga-DOTA-MGS5, metal not drawn]	2.42
